B1: FOXJ1 (parent)
chain: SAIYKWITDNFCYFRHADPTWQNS

- Variants of: B1
- Method Notes: protein stability index of a GFP-peptide fusion (GPS, HEK-293T) (PSI 1-6); higher = more stable;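 further: lentivirally expressed fusions sorted by FACS into six bins by GFP to DsRed ratio, PSI derived from sequencing read proportions per bin multiplied by bin number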
- Condition Label: c terminus: a fixed tail appended
Task for the reader: assign each of the following variants its reported protein stability index.
Just the number, please, no unit after it.

Qu. Field request: protein stability index | item: SAIYKWITDNFCYFRHADPTWQNN
Ans. 3.76

Qu. I would be grateful if you could share the reported protein stability index for SCIYKWITDNFCYFRHADPTWQNS .
Ans. 3.04

Qu. Which protein stability index value is on record for SAIYKWITDNFCYFRHADPTFQNS ?
Ans. 1.85

Qu. I'd like to know its protein stability index. The variant in question is SAIYKWITDNFKYFRHADPTWQNS
Ans. 2.81

Qu. # lookup: protein stability index of SAIYKWITDNFCYFRHAQPTWQNS
Ans. 2.86

Qu. Which protein stability index value is on record for SAEYKWITDNFCYFRHADPTWQNS ?
Ans. 1.67

Qu. Name the reported protein stability index value associated with the variant SAIYKWITDNFCYFRHADPDWQNS
Ans. 2.67

Qu. For the variant HAIYKWITDNFCYFRHADPTWQNS , what protein stability index is on record?
Ans. 2.92

Qu. For SAIYKWITDNFCYFFHADPTWQNS , what is its reported protein stability index?
Ans. 2.57

Qu. Using the record for SHIYKWITDNFCYFRHADPTWQNS , report its protein stability index.
Ans. 3.1

Qu. I would be grateful if you could share the reported protein stability index for SAIYKWWTDNFCYFRHADPTWQNS .
Ans. 3.71
